tested.target: DS-Cav1 RSV F (respiratory syncytial virus)
protocol.summary: ELISA on DS-Cav1 RSV F
readout.name: EC50 (µg/mL)
Unit µg/mL implied. Number only.

Record excerpt, results attached:
MPH12-v29 (VH-FRGL-D62E/VL-S26A) (antibody, V domains shown) VH: QVQLVESGGGLVKPGGSLRLSCAASGFTFSGFYMKWIRQAPGKGLEWVSSISASGSYTNYAESVEGRFTISRDNAKNSLYLQMNSLRAEDTAVYYCARGDSYCGASACHGEFFHKWGQGTLVTVSS VL: QSVLTQPPSVSGAPGQRVTISCTGSDANIGADFDVHWYQQLPGTAPKLLIYGNINRPSGVPDRFSGSRSGTSAFLAITRLQAEDEADYYCQSYDRSLHYVFGAGTKVTVL | 0.0425
MPH12-v17 (VH-FRGL-D62E/VL-D25S) (antibody, V domains shown) VH: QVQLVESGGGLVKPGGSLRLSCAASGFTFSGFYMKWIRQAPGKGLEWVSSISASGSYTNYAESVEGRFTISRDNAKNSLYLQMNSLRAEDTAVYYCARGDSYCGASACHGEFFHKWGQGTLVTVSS VL: QSVLTQPPSVSGAPGQRVTISCTGSSSNIGADFDVHWYQQLPGTAPKLLIYGNINRPSGVPDRFSGSRSGTSAFLAITRLQAEDEADYYCQSYDRSLHYVFGAGTKVTVL | 0.0251
MPH12 VH / MPH12 VL-FRGL-D25E (antibody, V domains shown) VH: QVQLVESGGGLVKPGGSLRLSCVASGFTFSGFYMKWIRQAPGKGLEWVSSISASGSYTNYADSVEGRFTVSRDNAKNSLFLLMSSLRAEDTAVYYCARGDSYCGASACHGEFFHKWGQGTLVTVSS VL: QSVLTQPPSVSGAPGQRVTISCTGSESNIGADFDVHWYQQLPGTAPKLLIYGNINRPSGVPDRFSGSKSGTSASLAITGLQAEDEADYYCQSYDRSLHYVFGTGTKVTVL | 0.0306

Proceed to the following item.
Report EC50 for MPH12 VH-FRGL / MPH12 VL-FRGL-D25E (antibody, V domains shown) VH: QVQLVESGGGLVKPGGSLRLSCAASGFTFSGFYMKWIRQAPGKGLEWVSSISASGSYTNYADSVEGRFTISRDNAKNSLYLQMNSLRAEDTAVYYCARGDSYCGASACHGEFFHKWGQGTLVTVSS VL: QSVLTQPPSVSGAPGQRVTISCTGSESNIGADFDVHWYQQLPGTAPKLLIYGNINRPSGVPDRFSGSKSGTSASLAITGLQAEDEADYYCQSYDRSLHYVFGTGTKVTVL please. 0.0472
